Cited source for all entries: patent US7799821B2

System: rabbits
Experiment Notes: Ocular surface hyperemia, rabbits
Type: in vivo
Applied Conditions: Conc. 0.10% (0.1%) g/100 mL, score
Quantity Measured: RABBIT Max. hyperemia

Some compounds with recorded RABBIT Max. hyperemia:
Compound | RABBIT Max. hyperemia
CC(C)OC(=O)CCC/C=C\C[C@@H]1[C@@H](c2ccc(C(C)(C)CO)cc2)[C@H](O)C[C@H]1Cl | 0.1
CC(C)(C)c1ccc([C@@H]2[C@@H](CCCCCCC(=O)O)[C@H](Cl)C[C@H]2O)cc1 [drawing 237] | 0
CCCCCC(O)c1ccc([C@@H]2[C@@H](C/C=C\CCCC(=O)OC(C)C)[C@H](Cl)C[C@H]2Cl)cc1 (stereo partly drawn) | 0.0
CCCCCC(=O)c1ccc([C@@H]2[C@@H](C/C=C\CCCC(=O)OC(C)C)[C@H](Cl)C[C@H]2O)cc1 | 0

A. O=C(O)CCC/C=C\C[C@@H]1[C@@H](c2ccc(C(O)C3CCCCC3)cc2)[C@H](O)C[C@H]1Cl (stereo partly drawn) [drawing 239]
B. CC(C)OC(=O)CCC/C=C\C[C@@H]1[C@@H](c2ccc3c(c2)CCC3O)[C@H](O)C[C@H]1Cl (stereo partly drawn)
Thinking about recorded RABBIT Max. hyperemia values, which is higher, A or B ? Please identify the chosen entry by its label.
B

====

Assay Target: hEP2/Gqs5 (Homo sapiens)
Construct: expressed in transfected cells; host or cells: HEK-293(EBNA)
Experiment Notes: FLIPR calcium signal, hEP2
Assay type: cell-based
Applied Conditions: FLIPR Ca2+ signal, HEK-293(EBNA); read-out: FUNCTIONAL EC50 HEP2
pEC50: −log10 of the molar value.
Quantity Measured: pEC50

Compound | Assay Target | pEC50
O=C(O)COCCCC[C@@H]1[C@@H](c2ccc(C(O)C3CCCCC3)cc2)[C@H](O)C[C@H]1Cl (some centres unmarked) | hEP2/Gqs5 (Homo sapiens) | 4.68

A. O=C(O)CCCCCC[C@@H]1[C@@H](c2ccc3c(c2)CCC3O)[C@H](O)C[C@H]1Cl (some centres unmarked)
B. CCCC1(C(O)c2cccc([C@@H]3[C@@H](CCCCCCC(=O)O)[C@H](Cl)C[C@H]3O)c2)CCC1 (some centres unmarked)
Thinking about recorded pEC50 values, which is higher, A or B ? Please identify the chosen entry by its label.
A
(A: 6.28, B: 5.83)

====

Assay Target: hEP3A/Gqi5 (Homo sapiens, UniProt P43115)
Construct: expressed in transfected cells; host or cells: HEK-293(EBNA)
Sequence (P43115 1-390): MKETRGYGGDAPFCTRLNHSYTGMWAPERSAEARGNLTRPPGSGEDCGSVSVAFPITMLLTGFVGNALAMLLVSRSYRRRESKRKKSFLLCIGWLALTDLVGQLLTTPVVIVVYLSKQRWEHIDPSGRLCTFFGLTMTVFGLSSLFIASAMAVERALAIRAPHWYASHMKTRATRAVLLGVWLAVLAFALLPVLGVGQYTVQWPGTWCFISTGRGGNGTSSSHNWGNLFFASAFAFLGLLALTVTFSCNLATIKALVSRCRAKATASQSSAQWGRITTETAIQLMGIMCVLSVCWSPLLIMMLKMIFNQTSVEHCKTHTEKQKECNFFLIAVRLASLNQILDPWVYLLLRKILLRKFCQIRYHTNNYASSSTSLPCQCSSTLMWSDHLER
Experiment Notes: FLIPR calcium signal, hEP3A
Type: cell-based
Applied Conditions: FLIPR Ca2+ signal, HEK-293(EBNA); read-out: FUNCTIONAL EC50 HEP3A
Quantity Measured: EC50 (µM)

Some compounds with recorded EC50:
Compound | Quantity Measured | Value
CCCC1(C(O)c2cccc([C@H]3[C@H](O)CC(=O)[C@@H]3C/C=C\CCCC(=O)O)c2)CCC1 (stereo partly drawn) | EC50 | 1.7
CCCC1(C(O)c2cccc([C@@H]3[C@@H](C/C=C\CCCC(=O)O)[C@H](Cl)C[C@H]3O)c2)CCC1 (stereo partly drawn) | EC50 | 0.455
CCCC1(C(O)c2cccc([C@@H]3[C@@H](CCCCCCC(=O)O)[C@H](Cl)C[C@H]3O)c2)CCC1 (stereo partly drawn) | EC50 | 3.12

a. CC(C)(C)c1ccc([C@@H]2[C@@H](C/C=C\CCCC(=O)O)[C@H](Cl)C[C@H]2O)cc1
b. CC(C)(C)c1ccc([C@H]2[C@H](O)CC(=O)[C@@H]2CCCCCCC(=O)O)cc1
Between item a and item b , which reported EC50 is smaller? Please identify the chosen entry by its label.
a
(a: 2.05 µM, b: 3.39 µM)

====

Assay Target: hDP/Gqs5 (Homo sapiens, UniProt Q13258)
Construct: expressed in transfected cells; host or cells: HEK-293(EBNA)
Sequence (Q13258 whole entry): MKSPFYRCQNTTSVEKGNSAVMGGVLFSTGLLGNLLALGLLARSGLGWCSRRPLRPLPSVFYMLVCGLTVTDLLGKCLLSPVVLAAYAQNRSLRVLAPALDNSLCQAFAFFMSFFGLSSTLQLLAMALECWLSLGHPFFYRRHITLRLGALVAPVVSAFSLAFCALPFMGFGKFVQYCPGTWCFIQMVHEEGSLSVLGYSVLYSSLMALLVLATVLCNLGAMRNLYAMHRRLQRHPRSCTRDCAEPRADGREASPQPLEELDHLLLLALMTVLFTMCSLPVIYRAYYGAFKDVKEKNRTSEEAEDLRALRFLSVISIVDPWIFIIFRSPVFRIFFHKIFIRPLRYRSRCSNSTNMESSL
Experiment Notes: FLIPR calcium signal, hDP
Format: cell-based
Applied Conditions: read-out: FUNCTIONAL Ca2+ EC50 HDP
Quantity Measured: EC50

Form entry - test system: hDP/Gqs5 (Homo sapiens, UniProt Q13258); read-out: EC50; molecule: CCCC1([C@@H](O)c2ccc([C@H]3CCC(=O)[C@@H]3C/C=C\CCCC(=O)O)cc2)CCC1 [drawing 191]
> 10 µM

====

Assay Target: hEP2/Gqs5 (Homo sapiens, UniProt P43116)
Construct: expressed in transfected cells; host or cells: HEK-293(EBNA)
Sequence (P43116 whole entry): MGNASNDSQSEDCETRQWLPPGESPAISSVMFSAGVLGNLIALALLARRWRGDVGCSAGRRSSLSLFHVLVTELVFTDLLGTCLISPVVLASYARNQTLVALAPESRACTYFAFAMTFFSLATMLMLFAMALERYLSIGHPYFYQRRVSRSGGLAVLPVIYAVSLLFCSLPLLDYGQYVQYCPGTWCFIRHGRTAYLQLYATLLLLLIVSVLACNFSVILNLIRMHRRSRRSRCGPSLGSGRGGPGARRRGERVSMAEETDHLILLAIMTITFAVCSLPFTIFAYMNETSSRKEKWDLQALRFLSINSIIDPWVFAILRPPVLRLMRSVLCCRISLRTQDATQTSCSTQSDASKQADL
Experiment Notes: FLIPR calcium signal, hEP2
Assay type: cell-based
Applied Conditions: unit inferred; other columns of the table in nM; read-out: EP2 data flipr EC50
Quantity Measured: EC50 (nM)

1. CCCCCCC(O)c1ccc(N2C(=O)CC[C@@H]2COCc2ccc(C(=O)O)s2)cc1 (stereo partly shown) [drawing 169]
2. CCCCCCC(O)c1ccc(N2C(=O)CC[C@@H]2CCCc2ccc(C(=O)O)s2)cc1 (single isomer, unassigned) [drawing 156]
3. CCCCCC(O)c1ccc(N2C(=O)CC[C@@H]2CCCc2ccc(C(=O)O)s2)cc1 (single isomer, unassigned) [drawing 151]
Arrange the 3 molecules from largest to smallest EC50. Output the labels ranked as instructed.
1, 2, 3

====

Assay Target: hDP/Gqs5 (Homo sapiens, UniProt Q13258)
Construct: expressed in transfected cells; host or cells: HEK-293(EBNA)
Experiment Notes: FLIPR calcium signal, hDP
Format: cell-based
Applied Conditions: read-out: Other Receptors EC50 hDP
pEC50: −log10 of the molar value.
Quantity Measured: pEC50

Some compounds with recorded pEC50:
Compound | Value
CCCCCC(=O)c1ccc(N2C(=O)CC[C@@H]2CCCc2ccc(C(=O)O)s2)cc1 | 5.11
CCCCCC(O)c1ccc(N2C(=O)CC[C@@H]2COCc2ccc(C(=O)O)s2)cc1 (single isomer, unassigned) [drawing 177] | 5.17
CCCCCC(O)c1ccc(N2C(=O)CC[C@@H]2CCCc2ccc(C(=O)O)s2)cc1 (single isomer, unassigned) [drawing 178] | 6.09
CCCCCC(O)c1ccc(N2C(=O)CC[C@@H]2CCCc2ccc(C(=O)O)s2)cc1 (stereo partly drawn) [drawing 173] | 5.91
CCCCCC(O)c1ccc(N2C(=O)CC[C@@H]2CCCc2ccc(C(=O)O)s2)cc1 (stereo partly drawn) [drawing 145] | 5.91
CCCCCCC(O)c1ccc(N2C(=O)CC[C@@H]2CCCc2ccc(C(=O)O)s2)cc1 (single isomer, unassigned) [drawing 184] | 6.97
CCCCCCC(O)c1ccc(N2C(=O)CC[C@@H]2CCCc2ccc(C(=O)O)s2)cc1 (single isomer, unassigned) [drawing 155] | 7.43
CCCCCC(O)c1ccc(N2C(=O)CC[C@@H]2CCCc2ccc(C(=O)O)s2)cc1 (single isomer, unassigned) [drawing 151] | 6.53
CCCCCC(O)c1ccc(N2C(=O)CC[C@@H]2CCCc2ccc(C(=O)O)s2)cc1 (single isomer, unassigned) [drawing 179] | 6.53
CCCCCC(O)c1ccc(N2C(=O)CC[C@@H]2COCc2ccc(C(=O)O)s2)cc1 (single isomer, unassigned) [drawing 176] | 5.11

P. CCC(O)c1ccc(N2C(=O)CC[C@@H]2COCc2ccc(C(=O)O)s2)cc1 (stereo partly drawn)
Q. CCCCCCC(O)c1ccc(N2C(=O)CC[C@@H]2CCCc2ccc(C(=O)O)s2)cc1 (stereo partly drawn) [drawing 182]
R. CCCCCCC(O)c1ccc(N2C(=O)CC[C@@H]2CCCc2ccc(C(=O)O)s2)cc1 (single isomer, unassigned) [drawing 183]
S. CC(C)(C)c1ccc(N2C(=O)CC[C@@H]2COCc2ccc(C(=O)O)s2)cc1
Put the items in order so that reported pEC50 rises from first to last. Output the labels ranked as instructed.
P, S, Q, R
(P: 5.12, S: 5.63, Q: 6.98, R: 7.43)

====

Assay Target: HEK-EBNA cells expressing a PG EP2 receptor subtype (Homo sapiens, UniProt P43116)
Construct: expressed in transfected cells; host or cells: HEK-EBNA
Experiment Notes: cAMP assay, EP2
Assay type: cell-based
Applied Conditions: unit inferred; read-out: EP2 data cAMP EC50
Quantity Measured: EC50 (nM)

Some compounds with recorded EC50:
Compound | Units Label | EC50
CC(C)(C)c1ccc(N2C(=O)CC[C@@H]2COCc2ccc(C(=O)O)o2)cc1 | nM | 28
O=C(O)c1ccc(COC[C@H]2CCC(=O)N2c2ccc(C(O)Cc3ccccc3)cc2)o1 (some centres unmarked) | nM | 148
CCCCCC(O)c1ccc(N2C(=O)CC[C@@H]2COCc2ccc(C(=O)O)s2)cc1 (single isomer, unassigned) [drawing 149] | nM | 1.5
CCCCCCC(O)c1ccc(N2C(=O)CC[C@@H]2COCc2ccc(C(=O)O)s2)cc1 (some centres unmarked) [drawing 169] | nM | 1.5
CCCCCCC(O)c1ccc(N2C(=O)CC[C@@H]2CCCc2ccc(C(=O)O)s2)cc1 (single isomer, unassigned) [drawing 155] | nM | 1.4

I. CCCCC(O)c1ccc(N2C(=O)CC[C@@H]2COCc2ccc(C(=O)O)s2)cc1 (some centres unmarked)
II. CC(C)(C)c1ccc(N2C(=O)CC[C@@H]2CCCCCCC(=O)O)cc1
Between item I and item II , which reported EC50 is smaller? Please identify the chosen entry by its label.
I
(I: 8 nM, II: 548 nM)
